tested_target: T1, recombinant mouse DLL4 (C-terminally His-tagged extracellular domain, R&D Systems) (mouse, UniProt Q9JI71 27-532)
T1 construct: extracellular domain; also called rmDLL4; mDLL4
T1 sequence (Q9JI71 27-532): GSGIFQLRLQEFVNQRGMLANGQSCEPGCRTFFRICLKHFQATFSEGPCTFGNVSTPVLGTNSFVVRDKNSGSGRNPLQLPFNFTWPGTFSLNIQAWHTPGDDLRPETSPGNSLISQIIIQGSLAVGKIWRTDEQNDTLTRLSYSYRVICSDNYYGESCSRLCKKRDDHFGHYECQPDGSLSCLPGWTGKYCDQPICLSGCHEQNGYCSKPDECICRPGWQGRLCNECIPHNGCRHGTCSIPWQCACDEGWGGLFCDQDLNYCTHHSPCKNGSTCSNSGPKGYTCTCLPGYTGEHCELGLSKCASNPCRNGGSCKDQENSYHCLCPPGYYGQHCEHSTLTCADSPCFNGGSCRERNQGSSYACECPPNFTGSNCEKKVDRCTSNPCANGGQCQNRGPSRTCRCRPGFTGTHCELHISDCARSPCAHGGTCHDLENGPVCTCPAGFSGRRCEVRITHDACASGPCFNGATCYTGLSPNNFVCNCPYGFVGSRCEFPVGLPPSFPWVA
test_protocol: binding ELISA on coated recombinant mouse DLL4 (Example 5.8, Example 7), OD 450 nm
metric: EC50 (read off the curve)

Example cases with answers are listed next.
binder: DLLBII133G05 (VHH, not shown: small tags and cut ends) VHH: EVQLVESGGGLVQPGGSLRLSCAASGFTFGSYDMSWVRRSPGKGPEWVSAINSGGGSTYYTDYVKGRFTISRDNAKNTLYLQMNSLKPEDTAVYYCAADRYIWARQGEYWGAYAYDYWGQGTQVTVSS
value: ~0.4 nM
//
binder: DLLBII015 (VHH, not shown: small tags and cut ends) VHH: EVQLVESGGGLVQPGGSLRLSCAASGFTIGSYDMSWVRRSPGKGPEWVSAINSGGGSTYYADYVKGRFTISRDNAKNTLYLQMNSLKPEDTAVYYCAADRYIWARQGEYWGAYAYDYWGQGTQVTVSS
value: ~1 nM
//
binder: DLLBII115A05 (VHH, not shown: small tags and cut ends, parent VHH; also called 115A05 (wt); 115A5) VHH: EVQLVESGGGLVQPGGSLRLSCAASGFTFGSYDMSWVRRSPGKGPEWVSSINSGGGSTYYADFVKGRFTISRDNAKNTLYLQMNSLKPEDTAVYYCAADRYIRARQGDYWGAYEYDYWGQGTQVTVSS
value: ~10 nM
//
binder: DLLBII136C07 (VHH, not shown: small tags and cut ends) VHH: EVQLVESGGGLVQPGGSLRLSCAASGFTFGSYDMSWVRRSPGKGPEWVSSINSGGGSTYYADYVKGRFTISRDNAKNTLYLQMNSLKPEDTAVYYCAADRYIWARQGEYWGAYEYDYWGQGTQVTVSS
value: ~1 nM

We now examine a further binder.
Fill in EC50 (read off the curve) for record DLLBII133A09 (VHH, not shown: small tags and cut ends) VHH: EVQLVESGGGLVQPGGSLRLSCAASGFTFGSYDMSWVRRSPGKGPEWVSAINSGGGSTYYADYVKGRFTISRDNAKNTLYLQMNSLKPEDTAVYYCAADRYIWARQGEYWGAYAYDYWGQGTQVTVSS ~1 nM
